B1: RPAIN (parent)
chain: ISEYEKSLQFDEKCLSIMLAEWEA

Variants of: B1
Test: protein stability index of a GFP-peptide fusion (GPS, HEK-293T) (PSI 1-6); higher = more stable;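 also: lentivirally expressed fusions sorted by FACS into six bins by GFP to DsRed ratio, PSI derived from sequencing read proportions per bin multiplied by bin number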
Conditions: c terminus: a fixed tail appended
value-type: protein stability index
Just the number, please, no unit attached.

- variant-label: "L19I"
  endpoint-result: 2.77

// query Name the reported protein stability index value associated with the variant L8C
// result 1.96

// query // next record A24W
// result 1.59

// query // next record Y4H
// result 2.06

// query // next record S16R
// result 2.62

// query // next record E12G
// result 2.27
